- Tested on: UACC-257
- Protocol summary: Growth inhibition of human UACC257 cells after 48 hrs by SRB protein assay
- Assay type: functional
- Experimental conditions: UACC-257, 48 h, read-out: Log TGI (converted)
Collected TGI values appear next to each entry.
Measured endpoint: TGI (µM)

Entry smiles: O=C(Cc1csc2nc(-c3ccc(Br)cc3)cn12)N/N=C/c1ccccc1
Qualifier operator: =
Measured value: 31.6
--
Entry smiles: COc1cccc(OC)c1/C=N/NC(=O)Cc1csc2nc(-c3ccc(Br)cc3)cn12
Qualifier operator: =
Measured value: 97.7
--
Entry smiles: O=C(Cc1csc2nc(-c3ccc(Br)cc3)cn12)N/N=C/c1ccc(O)cc1
Qualifier operator: =
Measured value: 7.76
--
Entry smiles: O=C(Cc1csc2nc(-c3ccc(Br)cc3)cn12)N/N=C/c1ccccc1O
Qualifier operator: =
Measured value: 11.5
--
Entry smiles: Nc1nc2[nH]cnc2c(=S)[nH]1
Qualifier operator: =
Measured value: 97.7
--
Entry smiles: O=C(Cc1csc2nc(-c3ccc(Br)cc3)cn12)N/N=C/c1ccc(Cl)cc1Cl
Qualifier operator: >
Measured value: 100
